Entries and their measured EC50 follow.
# assayed_target: T1, recombinant His-tagged human IFNAR-1-ECD protein (human, UniProt P17181 28-436)
# T1 construct: extracellular domain; the Biacore text says His-tagged human IFNAR-1-ECD; also called His-tagged IFNAR-1; hIFNAR-1 protein; not shown: His tag
# T1 sequence (looked up): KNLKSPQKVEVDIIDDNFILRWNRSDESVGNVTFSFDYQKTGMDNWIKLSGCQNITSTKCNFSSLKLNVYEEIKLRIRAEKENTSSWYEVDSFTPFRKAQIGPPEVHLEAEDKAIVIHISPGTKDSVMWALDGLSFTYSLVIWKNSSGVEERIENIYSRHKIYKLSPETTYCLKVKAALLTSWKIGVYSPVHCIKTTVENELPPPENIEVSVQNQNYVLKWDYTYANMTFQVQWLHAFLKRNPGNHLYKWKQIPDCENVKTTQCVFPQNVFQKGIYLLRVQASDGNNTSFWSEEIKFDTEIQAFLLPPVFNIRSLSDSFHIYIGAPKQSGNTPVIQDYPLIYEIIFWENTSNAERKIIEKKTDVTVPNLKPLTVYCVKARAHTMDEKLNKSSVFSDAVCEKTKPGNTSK
# procedure_details: ELISA, coated His-tagged IFNAR-1
Provide the reading as a plain figure in nM.

// below: answered binders
>  <binder>
268E9 (antibody, V domains shown, Hybridoma-derived monoclonal antibody) VH: EVQLQESGPGLAKPSQTLSLTCSVTGYSITSDYWNWIRKFPGNKLEYMGYISYSGSIYYNPSLKSRISITRATSKNQYYLQLNSVTNEDTATYYCARSGGMYYFDYWGQGTTLTVSS VL: DIQMTQSPASLSASVGETVTITCRASGNIHNYLAWYQQKQGKSPQLLVYNAKTLEDGVPSRFSGSGSGTQYSLKINSLQPEDFGSYYCQHFWSIPPTFGSGTKLEIK

>  <value_type>
EC50

>  <recorded_number>
0.088

$$$$
>  <binder>
430H6 (antibody, V domains shown, Hybridoma-derived monoclonal antibody) VH: QVTLKESGPGILQPSQTLSLTCTFSGFSLNTYGMGVGWIRQPSGKGLEWLANIWWDDDKYYNPSLKNRLTISKDTSNNQAFLKITNVDTADTATYFCARHPLPGYKDNYVVDAWGQGASVTVSS VL: DVVLTQTPGSLSVTLGDQASISCRSSQSLEYSDQYTYLEWYLQKSGQSPQLLIYGVSNRFSGVPDRFIGSGSGTDFTLKISRVEPEDLGVYYCFQATHDPYTFGAGTKLELK

>  <value_type>
EC50

>  <recorded_number>
0.733

$$$$

Consider the record given below.
Look at this binder and give its reported EC50. 485G10 (antibody, V domains shown, Hybridoma-derived monoclonal antibody; also called mouse antibody 485G10) VH: EVQLQQSGAELVKPGASVKLSCTGSGFNIKDYYIHWVKQRTEQGLEWIGRIDPEDGETKYAPKFQGKATITADTSSNTAYLQLSSLTSEDTVVYYCGRYHGYWALDYWGQGTSVTVSS VL: DIVMTQSQKFMSTSVGDRVSVTCKTSQNVGTNVAWYQQKPGQSPKPLIYSTSYRYSGVPDRFTGSGSGTDFTLIISNVQSEDLAEYFCHQYFSYPYTFGGGTLLEIK
0.015

Provenance of the data: patent US20200399381A1
